Taken from patent US20070037848A1.

PROTOCOL SUMMARY: Safety measures / adverse event reporting in the Phase II trial
Format: in vivo, human
EXPERIMENTAL CONTEXT: CQ arm, week 24, p=0.003
QUANTITY: reduction in haemoglobin (g/L)
Enter your answer as a number in g/L; do not include the unit.

Fill blank: measured reduction in haemoglobin of the compound Oc1c(I)cc(Cl)c2cccnc12 [CQ, iodochlorhydroxyquin] is ____.
6.88
